The entries below come with measured pEC50 values attached.
Target: Human CD16A^(48R, 158V) fused to IgG Fc (human) (UniProt P08637)
Sequence (P08637 17-208 L66R/F176V): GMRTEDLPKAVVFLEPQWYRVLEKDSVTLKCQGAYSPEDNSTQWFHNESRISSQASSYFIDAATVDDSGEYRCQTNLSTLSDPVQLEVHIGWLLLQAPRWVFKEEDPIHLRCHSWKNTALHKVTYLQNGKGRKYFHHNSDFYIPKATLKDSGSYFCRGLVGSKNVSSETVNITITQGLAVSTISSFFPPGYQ
Assay: ELISA, coated antigen-IgG Fc
Units for pEC50: none; it is -log10 of a concentration expressed in mol/L.

Previously resolved entries follow.
BINDER | ENDPOINT_NAME | RECORDED_MEASUREMENT
scFv CD16A (CD16-2) (scFv, also called CD16-2 scFv) scFv: QVQLVQSGAEVKKPGESLKVSCKASGYTFTSYYMHWVRQAPGQGLEWMGAIEPMYGSTSYAQKFQGRVTMTRDTSTSTVYMELSSLRSEDTAVYYCARGSAYYYDFADYWGQGTLVTVSSGGSGGSGGSGGSGGSGGSSYVLTQPSSVSVAPGQTATISCGGHNIGSKNVHWYQQRPGQSPVLVIYQDNKRPSGIPERFSGSNSGNTATLTISGTQAMDEADYYCQVWDNYSVLFGGGTKLTVLAAAGSHHHHHH | pEC50 | 8.82
scFv CD16A (CD16-1) (scFv, also called LSIV21 scFv) scFv: QVQLVQSGAEVKKPGESLKVSCKASGYTFTSYYMHWVRQAPGQGLEWMGIINPSGGSTSYAQKFQGRVTMTRDTSTSTVYMELSSLRSEDTAVYYCARGSAYYYDFADYWGQGTLVTVSSGGSGGSGGSGGSGGSGGSSYVLTQPSSVSVAPGQTATISCGGHNIGSKNVHWYQQRPGQSPVLVIYQDNKRPSGIPERFSGSNSGNTATLTISGTQAMDEADYYCQVWDNYSVLFGGGTKLTVLAAAGSHHHHHH | pEC50 | 7.84

We now examine a further binder.
Record scFv CD16A (CD16-5) (scFv) scFv: QVQLVQSGAEVKKPGESLKVSCKASGYTFSSYYMHWVRQAPGQGLEWMGAIEPRGVRISYAQKFQGRVTMTRDTSTSTVYMELSSLRSEDTAVYYCARGSAYYYDFADYWGQGTLVTVSSGGSGGSGGSGGSGGSGGSSYVLTQPSSVSVAPGQTARITCGGHNIGSTNVHWYQQKPGQAPVLVIYQDSKRPSGIPERFSGSNSGNTATLTISGTQAMDEADYYCQVWDNYSVQFGGGTKLTVLAAAGSHHHHHH . Reported pEC50: 8.92
